target: Phosphatidylinositol 4,5-bisphosphate 3-kinase catalytic subunit gamma isoform (Homo sapiens, UniProt P48736); assay: Inhibition of human recombinant PI3Kgamma using PIP2 by Kinase-Glo Plus assay
Sequence (P48736 whole entry, canonical isoform): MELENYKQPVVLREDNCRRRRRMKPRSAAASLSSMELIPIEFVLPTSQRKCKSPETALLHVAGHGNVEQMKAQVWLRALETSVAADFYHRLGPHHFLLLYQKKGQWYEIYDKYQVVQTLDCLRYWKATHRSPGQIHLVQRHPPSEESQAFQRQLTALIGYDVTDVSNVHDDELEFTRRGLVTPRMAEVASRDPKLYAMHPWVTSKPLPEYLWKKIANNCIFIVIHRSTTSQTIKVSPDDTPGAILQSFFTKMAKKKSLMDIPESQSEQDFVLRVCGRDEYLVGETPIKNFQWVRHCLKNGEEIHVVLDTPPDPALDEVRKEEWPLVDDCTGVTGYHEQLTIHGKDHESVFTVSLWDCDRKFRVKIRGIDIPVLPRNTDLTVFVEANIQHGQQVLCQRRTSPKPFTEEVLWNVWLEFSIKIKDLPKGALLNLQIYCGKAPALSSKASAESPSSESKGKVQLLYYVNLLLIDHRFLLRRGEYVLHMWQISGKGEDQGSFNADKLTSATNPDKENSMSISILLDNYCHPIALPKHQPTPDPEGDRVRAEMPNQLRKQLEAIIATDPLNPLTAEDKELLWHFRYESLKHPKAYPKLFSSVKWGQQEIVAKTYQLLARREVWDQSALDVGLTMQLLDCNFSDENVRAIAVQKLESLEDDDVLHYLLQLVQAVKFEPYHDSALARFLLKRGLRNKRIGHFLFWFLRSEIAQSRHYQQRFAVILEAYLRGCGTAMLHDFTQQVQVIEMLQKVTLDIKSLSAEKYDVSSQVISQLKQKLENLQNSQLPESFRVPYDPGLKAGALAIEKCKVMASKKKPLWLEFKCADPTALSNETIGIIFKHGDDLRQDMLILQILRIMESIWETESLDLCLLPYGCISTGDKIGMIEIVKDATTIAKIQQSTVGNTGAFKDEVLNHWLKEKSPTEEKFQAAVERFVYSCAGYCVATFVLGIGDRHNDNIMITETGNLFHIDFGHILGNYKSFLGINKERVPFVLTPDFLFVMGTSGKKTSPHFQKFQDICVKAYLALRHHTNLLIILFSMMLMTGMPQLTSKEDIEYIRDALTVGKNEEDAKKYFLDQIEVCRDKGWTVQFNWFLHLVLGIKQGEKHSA
pIC50: −log10 of the molar value.

mol	pIC50
C[C@@H](Nc1cc(F)cc(F)c1)c1cc(C(=O)N(C)C)cc2c(=O)cc(N3CCOCC3)oc12	6.17
C[C@@H](Oc1cc(F)cc(F)c1)c1cc(C(=O)N(C)C)cc2c(=O)cc(N3CCOCC3)oc12	4.89
CN(C)C(=O)c1cc(CNc2cc(F)cc(F)c2)c2oc(N3CCOCC3)cc(=O)c2c1	5.49
C[C@@H](Nc1cccc(Cl)c1F)c1cc(C(=O)N(C)C)cc2c(=O)cc(N3CCOCC3)oc12	6.49
